Test: in vitro
Conditions: human, CEM-SS cells

{"Substance": "Ac-HWAVGHL-NH2 [Acetyl-GRP (20-26), Ac-His-Trp-Ala-Val-Gly-His-Leu-NH2]", "viability at 10 micrograms per ml": "100%"}
